Assay: human hepatoma cell viability loss – ATP luminescence, cytotoxicity control for P. falciparum antimalarial project, primary screen (AID 2303);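 note: 0% = DMSO wells and 100% = digitonin-killed cells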
Settings: HepG2 viability, 24-48 h, at 10 µM, stronger effect = higher value
So basically, if inhibition comes in under 10% it's class 1, and if it's 10% or more it's class 0.

COc1ccc2nccc([C@@H](O)CN3CCC(NCc4cc5cccc6c5n(c4=O)CCC6)CC3)c2c1 ... class 0
Cc1nc(N)nc(N)c1OCCCOc1cccc(Cl)c1Cl ... class 0
O=C(Nc1ccc(F)c(F)c1)c1ccc(CN2CCCN(Cc3cccc(F)c3)CC2)cc1 ... class 0
CNCCNCc1cccc(-c2ccc(-c3nc4ccc(C(F)(F)F)cc4[nH]3)s2)c1 ... class 0
N#Cc1ccc2c(c1)CN(C1CCC(NC(=O)C3=Cc4cc(Cl)ccc4OC3)CC1)CCC2 (stereo not drawn) ... class 1
Fc1ccc2nc(-c3cccc(-c4cccc(CNCC5CCCO5)c4)c3)[nH]c2c1 (stereo not drawn) ... class 0
CNC(=O)c1ccc2nc(-c3ccc(-c4ccccc4)cc3)n(CC3CCN(CC4CCCC4)CC3)c2c1 ... class 0
CC(=O)Nc1cccc(C(=O)Nc2ccc(-c3cccc(-c4nc5ccc(C(F)(F)F)cc5[nH]4)c3)cc2)c1 ... class 0
Clc1ccc2c(NCc3ccccn3)ccnc2c1 ... class 1
O=C(NCCCCCN1CCC(c2c[nH]c3ccccc23)CC1)Nc1ccc(Br)cc1 ... class 0
COc1ccc(CN2C(=S)N(Cc3ccccc3)C(=O)C2CC(=O)Nc2ccccc2)cc1OC (stereo not drawn) ... class 1
Cn1nccc1C(=O)NCCNCc1cccc(-c2cccc(-c3nc4ccc(F)cc4[nH]3)c2)c1 ... class 0
CC(=O)Nc1ccc(Nc2cc(C)nc(Nc3ccc(NC(C)=O)cc3)n2)cc1 ... class 1
CCN(CCCN1CCCCC1)c1cc(C)nc(Nc2cc(C(F)(F)F)ccc2C)n1 ... class 0
CC(=O)Nc1cccc(CNc2cc(C)nc(Nc3ccc(C)cc3)n2)c1 ... class 0
CC(C)N1CCC(N(Cc2ccc(-c3ccc(C(F)(F)F)cc3)cc2)C(=O)Cn2c(CCc3cccc(F)c3F)cc(=O)c3ccccc32)CC1 ... class 0

###

Assay: human hepatoma cell viability loss – ATP luminescence, cytotoxicity control for P. falciparum antimalarial project, primary screen (AID 2303);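 note: 0% = DMSO wells and 100% = digitonin-killed cells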
Details: HepG2 viability, 24-48 h, at 10 µM
The source made the active and inactive calls.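 How the source made its calls: active means inhibition above 50%; inactive means the rest.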
Labels: active, inactive

CCN(CC)CCCC(C)Nc1ccnc2ccc(-c3ccccc3)cc12 (configuration not stated) ... inactive
CC(C)[C@H](NCC(=O)c1ccccc1)C(=O)O ... inactive
COc1cc(NCC(C)CNCc2cn(Cc3ccccc3)c3ccccc23)nc2ccccc12 (configuration not stated) ... inactive
COc1ccc2ccccc2c1C=NNc1ccnc2ccc(F)cc12 ... inactive
CCn1c(-c2nc(-c3ccc4c(c3)OCO4)cnc2N)nc2cnccc21 ... active
NS(=O)(=O)c1cccc(-c2ccc3c(=O)[nH]cnc3c2)c1 ... inactive
N#Cc1cccc(CN(Cc2ccc(Cl)c(Cl)c2)S(=O)(=O)c2cccc([N+](=O)[O-])c2)c1 ... inactive

###

inhibition for assorted compounds
Target: L-lactate dehydrogenase (Plasmodium falciparum (isolate CDC / Honduras))
Test: PfLDH activity inhibition – cell lysate, 3D7 strain, counter-screen for P. falciparum growth inhibition project (AID 2304);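 note: 0% = vehicle and 100% = reference inhibitor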
Conditions: P. falciparum 3D7 crude extract, LDH APAD/NBT absorbance; at 2 µM; stronger effect = higher value
experimental endpoint: inhibition (%)

O=C(Nc1ccc(F)c(C(F)(F)F)c1)NC1CCN(CCCCCNC(=O)[C@@H]2C[C@H]2c2ccc(Cl)c(Cl)c2)CC1 ... 0
CC(C)[C@@H](C(=O)NCc1cccc(C(F)(F)F)c1)N1C(=O)CCC1C(=O)Nc1ccc([N+](=O)[O-])cc1 (some centres undefined) ... -2
O=C(Nc1ccccc1N1CCOCC1)c1ncoc1-c1ccccc1C(F)(F)F ... 7
CN1CCC(N(Cc2ccc(N3CCN(Cc4c[nH]c5ccc(Cl)cc45)CC3)nc2)C2CC2)CC1 ... -2
Cc1cccc(-c2nc(Nc3ccncc3)c3ccc([N+](=O)[O-])cc3n2)n1 ... -1
N#Cc1ccc(N(CCOc2ccc(Cl)c(Cl)c2)Cc2ccccc2C(F)(F)F)cc1C(F)(F)F ... -2
Cn1nccc1C(=O)NCCNCc1cccc(-c2csc(-c3nc4ccccc4[nH]3)c2)c1 ... 0
CCCC(=O)NC(c1ccc(C(C)C)cc1)c1ccc2cccnc2c1O (centres undefined) ... 0
Cc1ccc(C2CCN(CCCCNC(=O)c3ccc(-c4ccc(C(F)(F)F)cc4)cc3)CC2)c(O)c1 ... -2
CCCNCc1c(O)ccc2c(CNCCC)c(O)ccc12 ... -1
CCOC(=O)c1cn(CC)c2cc(O[C@@H]3CCN(C(=O)OC(C)(C)C)C3)ccc2c1=O ... -8
CN1CCCN(c2ccnc3cc4c(cc23)N(C(=O)c2ccc(C(F)(F)F)cc2)CC4)CC1 ... 1
CS(=O)(=O)Nc1cccc(-c2cnc3[nH]cc(-c4cc(N)cc(C(=O)O)c4)c3c2)c1 ... 0
COc1cc2nc(NCc3nc4ccccc4[nH]3)nc(N)c2cc1OC ... -2
CCN(CC)c1ccc(C(c2ccc(N(CC)CC)cc2)c2ccc([N+](=O)[O-])cc2)cc1 ... 0
CC(C)[C@H](NC(=O)c1ccc(O)c(-c2ccc(Cl)c(Cl)c2)c1)C(=O)NCCN1CCCCC1 ... -4
O=C(NC1CCN(Cc2ccccc2)CC1)c1cc(-c2cccnc2)nc2ccc(Cl)cc12 ... 1
CCOC(=O)c1cc(C(=O)NCCCCN2CCC(c3ccc4c(c3OC)CCCC4)CC2)ccc1-c1ccc(C(F)(F)F)cc1 ... -3
Cc1c(-c2cccc(CNCCc3ccc(Cl)cc3)c2)cnc(N)c1C ... -5

All figures here come from PubChem BioAssay.
